src = patent EP0159254A1

List of IC50 tested on enképhalinase (Rattus norvegicus, UniProt P07861).
Sequence (P07861 whole entry): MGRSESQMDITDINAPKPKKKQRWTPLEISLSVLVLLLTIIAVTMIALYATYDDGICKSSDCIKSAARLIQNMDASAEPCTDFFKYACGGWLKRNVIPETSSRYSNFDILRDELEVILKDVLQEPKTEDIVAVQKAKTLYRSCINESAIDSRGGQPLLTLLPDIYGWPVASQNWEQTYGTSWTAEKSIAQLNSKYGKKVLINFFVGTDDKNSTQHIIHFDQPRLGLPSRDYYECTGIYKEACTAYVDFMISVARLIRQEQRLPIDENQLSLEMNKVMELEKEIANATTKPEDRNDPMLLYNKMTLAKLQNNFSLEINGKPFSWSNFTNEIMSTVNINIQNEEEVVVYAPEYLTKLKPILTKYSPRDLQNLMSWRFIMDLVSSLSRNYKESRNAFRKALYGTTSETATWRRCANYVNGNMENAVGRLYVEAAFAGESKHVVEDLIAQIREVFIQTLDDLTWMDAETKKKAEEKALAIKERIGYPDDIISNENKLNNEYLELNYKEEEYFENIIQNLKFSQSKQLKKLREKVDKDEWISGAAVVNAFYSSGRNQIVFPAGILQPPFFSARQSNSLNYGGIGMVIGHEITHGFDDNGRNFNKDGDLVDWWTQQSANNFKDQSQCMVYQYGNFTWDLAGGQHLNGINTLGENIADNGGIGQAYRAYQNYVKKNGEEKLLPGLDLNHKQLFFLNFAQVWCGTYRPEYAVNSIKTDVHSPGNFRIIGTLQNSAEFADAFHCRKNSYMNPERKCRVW
Could you give me the number in µM? Just the number is fine.

The recorded IC50 for O=C(NCCc1ccccc1)C(CS)Cc1ccccc1 (stereo not drawn) [Exemple 8] is 1

For reference, reported IC50 for O=C(NC1CCCCC1)C(CS)Cc1ccccc1 (stereo not drawn) [Exemple 2] stands at 0.1

The molecule listed as O=C(NCc1ccccn1)C(CS)Cc1ccccc1 (stereo not drawn) [Exemple 26] has a reported IC50 of 0.1
